# System: BaF3
# TEST SUMMARY: Antiproliferative activity against mouse BaF3 cells assessed as cell growth inhibition incubated for 72 hrs by CCK-8 assay
# Type: functional
RESULT TYPE: GI50

These solved cases illustrate the format of a correct answer.
CC(=O)Nc1cc(Oc2ccc(NC(=O)Cc3cccc(C(F)(F)F)c3)cc2)ncn1 = > 10 µM
CC(=O)Nc1cc(Oc2ccc(NC(=O)Cc3ccc(Cl)c(Cl)c3)cc2)ncn1 = > 10 µM
CNc1cc(Oc2ccc(NC(=O)Nc3ccc(C)c(C(F)(F)F)c3)cc2)ncn1 = > 10 µM

## Task What does the record list as GI50 for Cc1ccc(NC(=O)Nc2ccc(Oc3cc(NCCO)ncn3)cc2)cc1C(F)(F)F ?
## Result > 10 µM

## Task What does the record list as GI50 for Cc1ccc(NC(=O)Nc2ccc(Oc3cc(N)ncn3)cc2)cc1C(F)(F)F ?
## Result > 10 µM

## Task What does the record list as GI50 for CC(=O)Nc1cc(Oc2ccc(NC(=O)Cc3ccc4ccccc4c3)cc2)ncn1 ?
## Result > 10 µM

## Task What does the record list as GI50 for CC(=O)Nc1cc(Oc2ccc(NC(=O)Cc3cccc4ccccc34)cc2)ncn1 ?
## Result > 10 µM

## Task What does the record list as GI50 for CC(=O)Nc1cc(Oc2ccc(CC(=O)Nc3ccc(C(F)(F)F)cc3)cc2)ncn1 ?
## Result > 10 µM

## Task What does the record list as GI50 for CC(=O)Nc1cc(Oc2ccc(NC(=O)Cc3ccc(C(F)(F)F)cc3)cc2)ncn1 ?
## Result > 10 µM

## Task What does the record list as GI50 for CC(=O)Nc1cc(Oc2ccc(NC(=O)Cc3ccc(Cl)cc3Cl)cc2)ncn1 ?
## Result > 10 µM

Reference source for all entries: ChEMBL document CHEMBL5260841
